Recorded values, source paper PMC4288179.

# TARGET_UNDER_TEST: T1, HsLARP6(70-300) E262A (Homo sapiens, UniProt Q9BRS8 70-300, E262A)
# T1 sequence: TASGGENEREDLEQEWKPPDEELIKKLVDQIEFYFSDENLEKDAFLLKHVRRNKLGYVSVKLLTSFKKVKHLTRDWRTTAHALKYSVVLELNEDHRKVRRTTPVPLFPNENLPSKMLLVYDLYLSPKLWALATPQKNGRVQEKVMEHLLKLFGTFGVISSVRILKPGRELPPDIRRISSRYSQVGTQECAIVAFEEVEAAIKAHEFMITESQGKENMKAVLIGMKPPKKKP
# ASSAY_COMMENT: ITC; ITC: 20 mM Tris pH 7.25, 100 mM KCl, 5 mM MgCl2, 1 mM DTT, 298 K; protein titrated into RNA
# CONDITION_DESCRIPTION: protein: recombinant; tags: N-terminal His6 (TEV-cleavable); stem-loop with internal bulge
OUTCOME_MEASURE: Kd (nM)
Unit nM implied. Number only.

# input Please give the measured Kd for this binder: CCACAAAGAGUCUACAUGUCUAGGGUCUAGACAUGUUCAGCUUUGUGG (structured_RNA) [48 nt RNA (collagen alpha1(I) 5' UTR SL)]
# output 5.3
